Molecular target: Protein smoothened (Mus musculus)
Sequence (P56726 whole entry): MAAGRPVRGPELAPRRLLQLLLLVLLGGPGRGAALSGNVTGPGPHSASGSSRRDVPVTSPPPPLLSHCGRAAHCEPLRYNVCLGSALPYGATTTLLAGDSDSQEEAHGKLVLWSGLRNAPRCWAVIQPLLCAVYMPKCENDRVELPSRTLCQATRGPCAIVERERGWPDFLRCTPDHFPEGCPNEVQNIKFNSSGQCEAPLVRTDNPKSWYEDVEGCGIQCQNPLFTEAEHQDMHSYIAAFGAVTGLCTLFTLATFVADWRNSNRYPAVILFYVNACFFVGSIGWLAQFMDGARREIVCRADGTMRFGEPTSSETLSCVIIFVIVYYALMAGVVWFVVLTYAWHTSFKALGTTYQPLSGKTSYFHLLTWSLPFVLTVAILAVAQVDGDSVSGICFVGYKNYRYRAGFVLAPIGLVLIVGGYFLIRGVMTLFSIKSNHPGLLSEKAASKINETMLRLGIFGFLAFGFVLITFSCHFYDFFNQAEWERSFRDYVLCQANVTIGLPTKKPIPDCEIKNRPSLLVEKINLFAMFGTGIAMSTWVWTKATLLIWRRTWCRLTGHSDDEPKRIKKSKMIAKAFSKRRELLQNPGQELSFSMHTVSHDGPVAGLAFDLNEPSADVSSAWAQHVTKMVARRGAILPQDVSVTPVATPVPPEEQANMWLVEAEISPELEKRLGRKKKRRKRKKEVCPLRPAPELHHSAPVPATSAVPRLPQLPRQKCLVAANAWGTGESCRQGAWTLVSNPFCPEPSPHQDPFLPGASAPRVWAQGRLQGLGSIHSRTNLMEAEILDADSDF
Test: Antagonist activity at mouse Smo expressed in CHO cells assessed as inhibition of BODIPY-cyclopamine binding after 4 hrs by fluorescence assay
Type: cell-based
Measured Quantity: IC50 (nM)
Give bare numbers, in nM.

**Query** Bench note: what IC50 did "C[C@@H]1CN(c2ccc3c(Nc4ccc(Cl)c(-c5ncc(-c6ccccc6)[nH]5)c4)nccc3n2)CCO1" show?
**Result** 1.6

* * *

Molecular target: Protein smoothened (Mus musculus)
Assay: Antagonist activity at Smo in mouse TM3 cells expressing Hh12 assessed as inhibition of 1 nM Ag1.5-induced Gli expression incubated for 30 mins prior to Ag1.5-induction measured after 48 hrs by luciferase reporter gene assay
Format: functional, cell-based
Measured Quantity: IC50 (nM)
Answers are plain numbers, in nM.

Use these answered entries as a reference point.
>>> print(df.to_string())
                                 mol_smiles  experimental_result
0  Cc1ccc(NC(=O)c2ccc(N3CCOCC3)cc2)cc1-c1nc(-c2ccccc2)c[nH]1                  0.2
1  C[C@@H]1CN(c2ccc3c(Nc4ccc(Cl)c(-c5ncc(-c6ccccc6)[nH]5)c4)cccc3n2)C[C@H](C)O1                  0.3
2  Clc1ccc(Nc2nccc3cc(N4CCOCC4)ccc23)cc1-c1ncc(-c2ccccc2)[nH]1                  0.1
3  C[C@@H]1CN(c2ccc3c(Nc4ccc(Cl)c(-c5nc(-c6ccccc6)c[nH]5)c4)nccc3n2)C[C@H](C)O1                  0.2
4  C[C@@H]1CN(c2ccc3c(Nc4ccc(Cl)c(-c5ncc(-c6ccccc6)[nH]5)c4)nccc3n2)CCO1                  0.6
5  Clc1ccc(Nc2nccc3ccccc23)cc1-c1ncc(-c2ccccc2)[nH]1                   19
6  C[C@@H]1CN(c2ccc3c(Nc4ccc(Cl)c(-c5nc(-c6ccccc6)c[nH]5)c4)ccnc3c2)C[C@H](C)O1                  0.4
7  O=S1(=O)CCN(c2ccc3c(Nc4ccc(Cl)c(-c5nc(-c6ccccc6)c[nH]5)c4)nccc3c2)CC1                    2
8  C[C@@H]1CN(c2ccc3c(Nc4ccc(Cl)c(-c5ncc(-c6ccccc6)[nH]5)c4)nccc3c2)CCO1                  0.1

Could you now look at the following compound, please?
**Query** Bench note: what IC50 did "C[C@@H]1CN(c2cnc3c(Nc4ccc(Cl)c(-c5nc(-c6ccccc6)c[nH]5)c4)cccc3n2)C[C@H](C)O1" show?
**Result** 3

* * *

Experiment: Ratio of drug uptake in brain to plasma in mouse
Format: ADME, organism-based
Settings: read-out: BPR
Measured Quantity: Kp
Give bare numbers.

**Query** Bench note: what Kp did "C[C@@H]1CN(c2ccc3c(Nc4ccc(Cl)c(-c5ncc(-c6ccccc6)[nH]5)c4)nccc3n2)CCO1" show?
**Result** 0.4

* * *

Experiment: Oral bioavailability in mouse
Type: ADME, organism-based
Conditions: in vivo
Measured Quantity: bioavailability (%)
Give bare numbers, in %.

**Query** Bench note: what bioavailability did "C[C@@H]1CN(c2ccc3c(Nc4ccc(Cl)c(-c5ncc(-c6ccccc6)[nH]5)c4)nccc3n2)CCO1" show?
**Result** 82

Source listed as ChEMBL document CHEMBL2157948.
